Data origin, for the record: patent US20060067886A1

Protocol Details: Biodistribution of radiometal-DOTA-BBN conjugates in CF1 normal mice
Condition Context: 1 hour post-injection
Readout Label: Avg % ID, Lung (% ID)

[
  {
    "Molecule": "CSCC[C@H](NC(=O)[C@H](CC(C)C)NC(=O)[C@H](Cc1c[nH]cn1)NC(=O)CNC(=O)[C@@H](NC(=O)[C@H](C)NC(=O)[C@H](Cc1c[nH]c2ccccc12)NC(=O)[C@H](CCC(N)=O)NC(=O)CCCCNC(=O)CN1CCN(CC(=O)O)CCN(CC(=O)O)CCN(CC(=O)O)CC1)C(C)C)C(N)=O [177Lu-DOTA-5-Ava-BBN[7-14]NH2] [metal not drawn]",
    "Experimental Result": 0.08
  },
  {
    "Molecule": "CSCC[C@H](NC(=O)[C@H](CC(C)C)NC(=O)[C@H](Cc1cnc[nH]1)NC(=O)CNC(=O)[C@@H](NC(=O)[C@H](C)NC(=O)[C@H](Cc1c[nH]c2ccccc12)NC(=O)[C@H](CCC(N)=O)NC(=O)CCCCCCCNC(=O)CN1CCN(CC(=O)O)CCN(CC(=O)O)CCN(CC(=O)O)CC1)C(C)C)C(N)=O [111In-DOTA-8-Aoc-BBN[7-14]NH2] [metal not drawn]",
    "Experimental Result": 0.07
  },
  {
    "Molecule": "CSCC[C@H](NC(=O)[C@H](CC(C)C)NC(=O)[C@H](Cc1cnc[nH]1)NC(=O)CNC(=O)[C@@H](NC(=O)[C@H](C)NC(=O)[C@H](Cc1c[nH]c2ccccc12)NC(=O)[C@H](CCC(N)=O)NC(=O)CCNC(=O)CN1CCN(CC(=O)O)CCN(CC(=O)O)CCN(CC(=O)O)CC1)C(C)C)C(N)=O [149Pm-DOTA-β-Ala-BBN[7-14]NH2]",
    "Experimental Result": 0.06
  },
  {
    "Molecule": "CSCC[C@H](NC(=O)[C@H](CC(C)C)NC(=O)[C@H](Cc1cnc[nH]1)NC(=O)CNC(=O)[C@@H](NC(=O)[C@H](C)NC(=O)[C@H](Cc1c[nH]c2ccccc12)NC(=O)[C@H](CCC(N)=O)NC(=O)CN1CCN(CC(=O)O)CCN(CC(=O)O)CCN(CC(=O)O)CC1)C(C)C)C(N)=O [177Lu-DOTA-0-BBN[7-14]NH2] [metal not drawn]",
    "Experimental Result": 0.04
  }
]
